- Target: TBK1 (Homo sapiens, UniProt Q9UHD2)
- Construct: His-tag; made in house; host or cells: Sf9 insect cells
- Assay Method Text: In-vitro TBK1 kinase assay ([γ33]ATP filter-plate)
- Assay type: biochemical
- Condition Context: text bins; read-out: IC50 for inhibition of the kinase activity of TBK1
Let's look at some compounds and their measured IC50.

{"columns": ["Compound", "Target", "IC50"],
 "data": [
  ["COCCNCc1ccc(Nc2nccc(-c3ccc(OC4CCOCC4)c(C#N)c3)n2)cc1 [compound 488]", "TBK1 (Homo sapiens, UniProt Q9UHD2)", "< 0.01 µM"],
  ["COc1cc(Nc2nccc(-c3ccc(OC)c(C#N)c3)n2)cc(OC2CCN(C)CC2)c1 [Example 259]", "TBK1 (Homo sapiens, UniProt Q9UHD2)", "0.01 to 0.1 µM"],
  ["COc1cc(Nc2nccc(-c3ccc(OC4CCOCC4)c(C#N)c3)n2)ccc1C(=O)N1CC(N2CCOCC2)C1 [compound 475]", "TBK1 (Homo sapiens, UniProt Q9UHD2)", "< 0.01 µM"],
  ["N#Cc1cc(-c2ccnc(Nc3cccc(CS(=O)(=O)NCCO)c3)n2)ccc1OC1CCOCC1 [compound 619]", "TBK1 (Homo sapiens, UniProt Q9UHD2)", "< 0.01 µM"],
  ["N#Cc1cc(-c2ccnc(Nc3ccc(N4CCOCC4)cc3)n2)ccc1N [Example 217]", "TBK1 (Homo sapiens, UniProt Q9UHD2)", "< 0.01 µM"],
  ["CNS(=O)(=O)Cc1ccc(Nc2nccc(-c3ccc(OCC(C)C)c(C#N)c3)n2)cc1 [compound 606]", "TBK1 (Homo sapiens, UniProt Q9UHD2)", "< 0.01 µM"],
  ["CCOc1cccc(Nc2nccc(-c3cccc(C#N)c3)n2)c1 [Example 276]", "TBK1 (Homo sapiens, UniProt Q9UHD2)", "0.1 to 0.5 µM"],
  ["N#Cc1cc(-c2ccnc(Nc3ccc(NC(=O)Nc4ccncc4)cc3)n2)ccc1OC1CCOCC1 [Example 17]", "TBK1 (Homo sapiens, UniProt Q9UHD2)", "0.01 to 0.1 µM"],
  ["COCCNC(=O)c1ccc(Nc2nccc(-c3ccc(OCC(C)C)c(C#N)c3)n2)cc1 [compound 565]", "TBK1 (Homo sapiens, UniProt Q9UHD2)", "< 0.01 µM"],
  ["COc1cc(Nc2nccc(-c3ccc(OC4CCOCC4)c(C#N)c3)n2)ccc1S(=O)(=O)N1CCCC1 [compound 394]", "TBK1 (Homo sapiens, UniProt Q9UHD2)", "< 0.01 µM"],
  ["COc1cc(NC(=O)N2CC[C@@H](O)C2)cc(Nc2nccc(-c3ccc(OC)c(C#N)c3)n2)c1 [compound 378]", "TBK1 (Homo sapiens, UniProt Q9UHD2)", "0.01 to 0.1 µM"],
  ["N#Cc1cc(-c2ccnc(Nc3ccc(N4CCOCC4)cc3)n2)ccc1OC1CCNCC1 [Example 194]", "TBK1 (Homo sapiens, UniProt Q9UHD2)", "< 0.01 µM"],
  ["N#Cc1cc(-c2ccnc(Nc3ccc(CS(=O)(=O)NCCO)cc3)n2)ccc1OC1CCOCC1 [compound 402]", "TBK1 (Homo sapiens, UniProt Q9UHD2)", "< 0.01 µM"],
  ["COCCNC(=O)c1ccc(Nc2nccc(-c3ccc(NC(=O)C4CC4)c(C#N)c3)n2)cc1OC [compound 558]", "TBK1 (Homo sapiens, UniProt Q9UHD2)", "< 0.01 µM"],
  ["COc1cc(Nc2nccc(-c3ccc(OC4CCN(C(=O)[C@H](C)O)CC4)c(C#N)c3)n2)ccc1C(=O)NCCCN(C)C [compound 376]", "TBK1 (Homo sapiens, UniProt Q9UHD2)", "< 0.01 µM"],
  ["N#Cc1cc(-c2ccnc(Nc3ccc4c(c3)OCO4)n2)ccc1OC1CCOCC1 [Example 23]", "TBK1 (Homo sapiens, UniProt Q9UHD2)", "< 0.01 µM"]
]}

* * *

- Target: TBK1 (Homo sapiens, UniProt Q9UHD2)
- Construct: His-tag; made in house; host or cells: Sf9 insect cells
- Assay Method Text: In-vitro TBK1 kinase assay ([γ33]ATP filter-plate)
- Assay type: biochemical
- Condition Context: Table 3; read-out: TBK1 IC50
pIC50: −log10 of the molar value.

{"columns": ["Compound", "pIC50"],
 "data": [
  ["N#Cc1cc(-c2ccnc(Nc3ccc(N4CCOCC4)cc3)n2)ccc1OC1CCN(C(=O)CO)CC1 [Example 190]", 9.52],
  ["N#Cc1cc(-c2ccnc(Nc3cccc(CS(=O)(=O)NCCO)c3)n2)ccc1NC(=O)C1CC1 [compound 627]", 8.89],
  ["N#Cc1cc(-c2ccnc(Nc3cccc(N4CCN(CCO)CC4)c3)n2)ccc1OC1CCOCC1 [compound 620]", 8.72],
  ["N#Cc1cc(-c2ccnc(Nc3ccc(Cn4ccnc4)cc3)n2)ccc1OC1CCOCC1 [compound 500]", 9.52],
  ["COc1cc(Nc2nccc(-c3ccc(OC4CCN(C(=O)CO)CC4)c(C#N)c3)n2)ccc1N1CCOCC1 [Example 59]", 9.40],
  ["N#Cc1cc(-c2ccnc(Nc3ccc(N4CCOCC4)cc3)n2)ccc1OC1CCN(S(N)(=O)=O)CC1 [Example 80]", 9.40],
  ["N#Cc1cc(-c2ccnc(Nc3cccc(CS(=O)(=O)NCCO)c3)n2)ccc1OC1CCOCC1 [compound 619]", 9.70],
  ["N#Cc1cc(-c2ccnc(Nc3cccc(CS(=O)(=O)NCCO)c3)n2)ccc1OCC1CC1 [compound 611]", 9.22]
]}

* * *

# key: entry, value: pIC50
- Target: TBK1 (Homo sapiens, UniProt Q9UHD2)
- Construct: His-tag; made in house; host or cells: Sf9 insect cells
- Assay Method Text: In-vitro TBK1 kinase assay ([γ33]ATP filter-plate)
- Type: biochemical
- Condition Context: text bins; read-out: IC50 for inhibition of the kinase activity of TBK1
pIC50: −log10 of the molar value.
Reported Property: pIC50

{"columns": ["Molecule", "Reported Property", "Measured Value"],
 "data": [
  ["N#Cc1cc(-c2ccnc(Nc3ccc(F)c(OCC(O)CO)c3)n2)ccc1OC1CCOCC1 (centres unmarked) [compound 608]", "pIC50", "> 8.00"],
  ["CN1CCC(NS(=O)(=O)c2ccc(Nc3nccc(-c4ccc(OC5CCOCC5)c(C#N)c4)n3)cc2)CC1 [compound 371]", "pIC50", "> 8.00"],
  ["N#Cc1cc(-c2ccnc(Nc3ccc(N4CCOCC4)cc3)n2)ccc1OCC1CC1 [compound 438]", "pIC50", "> 8.00"],
  ["COc1cc(NC(=O)NCCCN)cc(Nc2nccc(-c3ccc(OC)c(C#N)c3)n2)c1 [compound 320]", "pIC50", "7.00 to 8.00"],
  ["COc1ccc(Nc2nccc(-c3ccc(O)c(C#N)c3)n2)cc1OC [Example 118]", "pIC50", "> 8.00"],
  ["CC(C)(C)CC(=O)Nc1ccc(-c2ccnc(Nc3ccc(N4CCOCC4)cc3)n2)cc1C#N [Example 202]", "pIC50", "> 8.00"],
  ["N#Cc1cc(-c2ccnc(Nc3ccc(N4CCOCC4)cc3)n2)ccc1NCc1ccccc1 [Example 224]", "pIC50", "7.00 to 8.00"],
  ["N#Cc1cc(-c2ccnc(Nc3cccc(OCCCN4CCOCC4)c3)n2)ccc1OC1CCOCC1 [compound 528]", "pIC50", "> 8.00"]
]}

* * *

- Target: TBK1 (Homo sapiens, UniProt Q9UHD2)
- Construct: His-tag; made in house; host or cells: Sf9 insect cells
- Sequence (Q9UHD2 1-729): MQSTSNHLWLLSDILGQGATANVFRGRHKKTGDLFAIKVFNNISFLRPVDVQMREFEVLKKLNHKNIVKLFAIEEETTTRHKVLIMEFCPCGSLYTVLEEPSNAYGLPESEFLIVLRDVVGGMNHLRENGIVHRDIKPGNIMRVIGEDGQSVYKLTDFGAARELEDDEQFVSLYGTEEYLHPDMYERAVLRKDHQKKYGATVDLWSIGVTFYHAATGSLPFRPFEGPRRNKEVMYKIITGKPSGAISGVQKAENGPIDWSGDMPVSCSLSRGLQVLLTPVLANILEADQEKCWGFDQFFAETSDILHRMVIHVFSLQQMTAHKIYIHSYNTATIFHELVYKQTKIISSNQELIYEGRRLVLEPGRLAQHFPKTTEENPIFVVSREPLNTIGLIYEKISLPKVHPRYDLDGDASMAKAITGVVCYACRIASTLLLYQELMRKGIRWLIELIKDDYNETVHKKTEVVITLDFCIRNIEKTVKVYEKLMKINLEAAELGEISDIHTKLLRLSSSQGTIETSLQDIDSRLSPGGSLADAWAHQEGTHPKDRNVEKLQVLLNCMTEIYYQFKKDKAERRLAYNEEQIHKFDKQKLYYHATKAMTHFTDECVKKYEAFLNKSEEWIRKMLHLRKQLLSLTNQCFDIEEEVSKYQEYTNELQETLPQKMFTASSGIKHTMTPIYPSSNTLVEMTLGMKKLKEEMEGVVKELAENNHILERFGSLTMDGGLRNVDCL
- Assay Method Text: In-vitro TBK1 kinase assay ([γ33]ATP filter-plate)
- Assay type: biochemical
- Condition Context: Table 3; read-out: TBK1 IC50
- Experimental: IKKε enzyme was produced as a His-tag fusion in Sf9 cells and used at a final concentration of […]. TBK1 enzyme was produced as a His-tag fusion in Sf9 cells and used at a final concentration of 0.1 μg/ml. […] After air drying, scintillant (PerkinElmer, Waltham, Mass.) was added and the plates were read on a PerkinElmer TopCount NXT instrument. […]
Below: a set of entries, each annotated with reported IC50.

{"columns": ["Compound", "IC50"],
 "data": [
  ["CC(C)COc1ccc(-c2ccnc(Nc3ccc(N4CCOCC4)cc3)n2)cc1C#N", "200 pM"],
  ["COc1cc(-c2ccnc(Nc3ccc(N4CCOCC4)cc3)n2)cc(C#N)c1OC1CCOCC1", "200 pM"],
  ["N#Cc1cc(-c2ccnc(Nc3cccc(NC(=O)N4CCC(O)C4)c3)n2)ccc1OC1CCOCC1 (stereo not shown)", "1300 pM"],
  ["COc1cc(Nc2nccc(-c3ccc(OC4CCOCC4)c(C#N)c3)n2)ccc1C(=O)N1CCN2CCCC2C1 (stereo not shown)", "100 pM"]
]}

Source listed as patent US20150352108A1.
